The reported numbers originate from ChEMBL document CHEMBL5107966.

# System: A549
# assay_method_text: Cytotoxicity against human A549 cells
measurement_kind: pIC50
One number for each entry, as −log10 of the molar value.

[in] So what's the measured pIC50 for this one? COc1ccc(C2NC2c2cc(OC)c(OC)c(OC)c2)cc1 (stereo unspecified)
[out] 5.06

---

For each of the compounds below, state its MIC.
# Test system: Aspergillus niger
# assay_method_text: Antimicrobial activity against Aspergillus niger […]
# Type: functional
Give bare numbers, in µg/mL.

1. Clc1ccccc1C(c1ccccc1)(c1ccccc1)n1ccnc1 | 16
2. Cc1ccc(S(=O)(=O)N2C(=O)C(Cl)[C@H]2c2cccc(F)c2)cc1 (some centres undefined) | 16

Give measured MIC for every item shown.
1. Cc1ccc(S(=O)(=O)N2C(=O)C(Cl)[C@H]2c2ccc(F)cc2)cc1 (some centres undefined)
2. Cc1ccc(S(=O)(=O)N2C(=O)C(Cl)[C@H]2c2ccccc2F)cc1 (some centres undefined)

[out]
[8, 16]

---

# Test system: A2780
# assay_method_text: Cytotoxicity against human A2780 cells
# Assay type: functional, cell-based
measurement_kind: pIC50
Numbers only, as −log10 of the molar value.

[in] pIC50 of COc1ccc(C2NC2c2cc(OC)c(OC)c(OC)c2)cc1 (stereo unspecified) on A2780?
[out] 5.33

---

# System: RAW264.7
# assay_method_text: Inhibition of NO release in mouse RAW264.7 incubated for 15 mins by fluoroscence-luminescence reader infinite M200 Pro analysis
# Format: functional, cell-based
# experimental_conditions: RAW264.7, 0.25 h
measurement_kind: IC50 (µM)
Numbers only, in µM.

The following compounds have reported results that may help.
1. O=C1[C@@H](Oc2ccc(Cl)cc2)[C@@H](c2ccccc2[N+](=O)[O-])N1N1CCOCC1 | 7.92
2. Nc1cccc([C@@H]2[C@H](Oc3ccc4ccccc4c3)C(=O)N2CCCN2CCOCC2)c1 | 5.73

Below: the item to evaluate.
[in] So what's the measured IC50 for this one? `O=C1[C@@H](Oc2ccc(Cl)cc2Cl)[C@@H](c2ccc([N+](=O)[O-])cc2)N1CCCN1CCOCC1`
[out] 4.14

---

For each of the compounds below, state its MIC.
# Test system: Escherichia coli
# assay_method_text: Antimicrobial activity against Escherichia coli ATCC 8739
# Type: functional
One number for each entry, in µg/mL.

The following compounds have reported results that may help.
1. Cc1ccc(S(=O)(=O)N2C(=O)C(Cl)[C@H]2c2cccc(F)c2)cc1 (some centres undefined) | 2
2. Cc1ccc(S(=O)(=O)N2C(=O)C(Cl)[C@H]2c2ccccc2F)cc1 (some centres undefined) | 4
3. CC1(C)S[C@@H]2[C@H](NC(=O)[C@H](N)c3ccccc3)C(=O)N2[C@H]1C(=O)O [AMPICILLIN] | 1

Below: the item to evaluate.
[in] So what's the measured MIC for this one? Cc1ccc(S(=O)(=O)N2C(=O)C(Cl)[C@H]2c2ccc(F)cc2)cc1 (some centres undefined)
[out] 0.5
